target: recombinant human CK2 (RRββ-holoenzyme) (Homo sapiens, UniProt P68400); test: CK2 Kinase Assay (33P-ATP, filter plate); settings: final ATP concentration 15 μM, 10 min at 30° C.; read-out: protein kinase CK2 IC50
Sequence (P68400 whole entry): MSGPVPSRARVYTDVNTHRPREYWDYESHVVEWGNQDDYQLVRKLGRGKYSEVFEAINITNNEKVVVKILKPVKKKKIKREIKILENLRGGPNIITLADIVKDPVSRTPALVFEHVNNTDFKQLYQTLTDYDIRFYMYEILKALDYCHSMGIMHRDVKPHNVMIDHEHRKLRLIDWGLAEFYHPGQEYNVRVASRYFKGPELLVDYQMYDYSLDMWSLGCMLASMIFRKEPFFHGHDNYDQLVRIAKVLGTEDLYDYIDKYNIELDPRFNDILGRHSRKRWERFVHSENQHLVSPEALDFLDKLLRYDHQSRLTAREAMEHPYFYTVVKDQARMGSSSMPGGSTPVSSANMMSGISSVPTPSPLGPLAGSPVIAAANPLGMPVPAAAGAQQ
Sequence (P67870 whole entry partner): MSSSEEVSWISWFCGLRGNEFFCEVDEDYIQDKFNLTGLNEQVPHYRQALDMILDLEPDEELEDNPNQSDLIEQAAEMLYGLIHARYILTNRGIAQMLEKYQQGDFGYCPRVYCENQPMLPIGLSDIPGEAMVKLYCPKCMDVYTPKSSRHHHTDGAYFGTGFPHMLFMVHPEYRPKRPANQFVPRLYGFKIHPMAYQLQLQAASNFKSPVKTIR
QUANTITY NAME: IC50

Inquiry: Return the recorded IC50 value; entry: Clc1cccc(Nc2nc3c4cnccc4[nH]c3c3cnccc23)c1 [Compound (1)]
Reply text: 21 nM

---

tested on: PC3 (prostate); assay: In vitro cytotoxic activity assay (MTT), PC3; type: cell-based; settings: Homo sapiens, 96 hours exposure, read-out: IC50, 50% inhibition of cell proliferation
QUANTITY NAME: IC50 (µM)
Your answer should be a plain number; it is taken to be in µM.

Inquiry: Return the recorded IC50 value; entry: Clc1cccc(Nc2nc3c4cnccc4[nH]c3c3cnccc23)c1
Reply text: 0.8
